Test: Pharmacokinetic parameters in the rat (i.v. and intragastric)
Format: in vivo
Conditions: male, plasma, intravenous, read-out: CLplasma (converted)
Listed here are compounds together with their documented clearance.
METRIC: clearance (mL/min/kg)

>>> meas_value("COC[C@]1(OC)CC[C@@]2(CC1)NC(=O)C(c1cc(-c3ccc(Cl)c(F)c3)ccc1C)=C2O")
0.117
>>> meas_value("CO[C@]1(C(F)(F)F)CC[C@]2(CC1)NC(=O)C(c1cc(-c3ccc(Cl)cc3)ccc1C)=C2O")
0.1
>>> meas_value("CO[C@]1(C(F)(F)F)CC[C@]2(CC1)NC(=O)C(c1cc(-c3ccc(Cl)c(F)c3)ccc1C)=C2O")
0.483

---

Target: human serum albumin (HSA) (Homo sapiens (Human))
Sequence (P02768 25-609): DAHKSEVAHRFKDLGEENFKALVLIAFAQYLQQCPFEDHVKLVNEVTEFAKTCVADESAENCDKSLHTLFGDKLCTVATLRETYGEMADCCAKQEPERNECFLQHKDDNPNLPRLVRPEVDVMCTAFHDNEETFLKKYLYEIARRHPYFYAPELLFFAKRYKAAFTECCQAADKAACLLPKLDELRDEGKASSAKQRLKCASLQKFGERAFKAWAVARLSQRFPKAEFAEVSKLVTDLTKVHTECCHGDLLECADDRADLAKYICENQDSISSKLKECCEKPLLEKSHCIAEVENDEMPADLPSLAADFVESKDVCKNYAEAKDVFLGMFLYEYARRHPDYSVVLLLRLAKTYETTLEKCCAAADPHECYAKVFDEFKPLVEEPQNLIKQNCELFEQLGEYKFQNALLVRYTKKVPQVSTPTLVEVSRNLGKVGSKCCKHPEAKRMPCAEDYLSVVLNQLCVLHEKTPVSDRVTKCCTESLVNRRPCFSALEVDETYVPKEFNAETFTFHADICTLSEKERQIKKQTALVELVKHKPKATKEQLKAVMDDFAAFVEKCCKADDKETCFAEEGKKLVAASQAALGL
Assay: Protein binding to human serum albumin (HSA-Transil)
Conditions: buffer pH 7.4
Listed here are molecules together with their documented Kd.
METRIC: Kd (µM)

>>> meas_value("CO[C@]1(C)CC[C@]2(CC1)NC(=O)C(c1cc(-c3ccc(Cl)cc3)ccc1C)=C2O [Example V.1-a]")
4.84
>>> meas_value("COC[C@H]1CC[C@]2(CC1)NC(=O)C(c1cc(-c3ccc(Cl)cc3)ccc1C)=C2O [V.3-b]")
4.2
>>> meas_value("CO[C@]1(C(F)(F)F)CC[C@]2(CC1)NC(=O)C(c1cc(-c3ccc(Cl)c(F)c3)ccc1C)=C2O [Example 1-2]")
1.79
>>> meas_value("Cc1ccc(-c2ccc(Cl)c(F)c2)cc1C1=C(O)[C@]2(CC[C@](O)(C(F)(F)F)CC2)NC1=O [V.2-c]")
1.38
>>> meas_value("COC[C@H]1CC[C@]2(CC1)NC(=O)C(c1cc(-c3ccc(Cl)c(F)c3)ccc1C)=C2O [V.4-b]")
3.64
>>> meas_value("COC[C@]1(OC)CC[C@@]2(CC1)NC(=O)C(c1cc(-c3ccc(Cl)cc3)ccc1C)=C2O [Example 1-3]")
4.8
>>> meas_value("CO[C@]1(C)CC[C@]2(CC1)NC(=O)C(c1cc(-c3ccc(Cl)c(F)c3)ccc1C)=C2O [Example V.2-a]")
2.8
>>> meas_value("Cc1ccc(-c2ccc(Cl)cc2)cc1C1=C(O)[C@]2(CC[C@](O)(C(F)(F)F)CC2)NC1=O [V.1-c]")
6.9

---

Listed here are molecules together with their documented IC50.
Tested on: PC3
Test: Tumour cell proliferation, CellTiter-Glo, 96 h
Format: cell-based
Conditions: Homo sapiens, PC-3; 96-hour incubation
METRIC: IC50 (nM)

>>> meas_value("Cc1ccc(-c2ccc(Cl)cc2)cc1C1=C(O)[C@]2(CC[C@](O)(C(F)(F)F)CC2)NC1=O [V.1-c]")
275
>>> meas_value("COC[C@H]1CC[C@]2(CC1)NC(=O)C(c1cc(-c3ccc(Cl)c(F)c3)ccc1C)=C2O [V.4-b]")
30
>>> meas_value("CO[C@]1(C(F)(F)F)CC[C@]2(CC1)NC(=O)C(c1cc(-c3ccc(Cl)c(F)c3)ccc1C)=C2O [Example 1-2]")
22
>>> meas_value("COC[C@H]1CC[C@]2(CC1)NC(=O)C(c1cc(-c3ccc(Cl)cc3)ccc1C)=C2O [V.3-b]")
36
>>> meas_value("COC[C@]1(OC)CC[C@@]2(CC1)NC(=O)C(c1cc(-c3ccc(Cl)c(F)c3)ccc1C)=C2O [Example 1-4]")
120
>>> meas_value("COC[C@]1(OC)CC[C@@]2(CC1)NC(=O)C(c1cc(-c3ccc(Cl)cc3)ccc1C)=C2O [Example 1-3]")
194
>>> meas_value("CO[C@]1(C(F)(F)F)CC[C@]2(CC1)NC(=O)C(c1cc(-c3ccc(Cl)cc3)ccc1C)=C2O [Example 1-1]")
29
>>> meas_value("Cc1ccc(-c2ccc(Cl)c(F)c2)cc1C1=C(O)[C@]2(CC[C@](O)(C(F)(F)F)CC2)NC1=O [V.2-c]")
767

---

Test system: human ACC1
Assay: Human ACC1 enzyme assay (ADP-Glo)
Format: biochemical
METRIC: Selectivity ACC1 vs. ACC2 (mean of the individual measurements ± standard deviation)

>>> meas_value("CO[C@]1(C)CC[C@]2(CC1)NC(=O)C(c1cc(-c3ccc(Cl)c(F)c3)ccc1C)=C2O")
"57.2 ± 6.4"
>>> meas_value("Cc1ccc(-c2ccc(Cl)c(F)c2)cc1C1=C(O)[C@]2(CC[C@H](C(F)(F)F)CC2)NC1=O")
"9.4 ± 0.8"
>>> meas_value("COC[C@H]1CC[C@]2(CC1)NC(=O)C(c1cc(-c3ccc(Cl)c(F)c3)ccc1C)=C2O")
15.2
>>> meas_value("COC[C@H]1CC[C@]2(CC1)NC(=O)C(c1cc(-c3ccc(Cl)cc3)ccc1C)=C2O")
6.4
>>> meas_value("Cc1ccc(-c2ccc(Cl)cc2)cc1C1=C(O)[C@]2(CC[C@H](C(F)(F)F)CC2)NC1=O")
"9.8 ± 1.4"
>>> meas_value("CO[C@]1(C)CC[C@]2(CC1)NC(=O)C(c1cc(-c3ccc(Cl)cc3)ccc1C)=C2O")
"28.2 ± 8.5"
>>> meas_value("COC[C@]1(OC)CC[C@@]2(CC1)NC(=O)C(c1cc(-c3ccc(Cl)cc3)ccc1C)=C2O")
"47.0 ± 2.1"

---

Listed here are compounds together with their documented fraction unbound.
Assay: Plasma protein binding by equilibrium dialysis
Type: in vitro ADME
Settings: human plasma; read-out: fu [%] (human)
METRIC: fraction unbound

>>> meas_value("COC[C@H]1CC[C@]2(CC1)NC(=O)C(c1cc(-c3ccc(Cl)cc3)ccc1C)=C2O [V.3-b]")
0.0036
>>> meas_value("Cc1ccc(-c2ccc(Cl)cc2)cc1C1=C(O)[C@]2(CC[C@H](C(F)(F)F)CC2)NC1=O [V.1-b]")
0.0007
>>> meas_value("COC[C@H]1CC[C@]2(CC1)NC(=O)C(c1cc(-c3ccc(Cl)c(F)c3)ccc1C)=C2O [V.4-b]")
0.0141
>>> meas_value("COC[C@]1(OC)CC[C@@]2(CC1)NC(=O)C(c1cc(-c3ccc(Cl)cc3)ccc1C)=C2O [Example 1-3]")
0.0041
>>> meas_value("CO[C@]1(C(F)(F)F)CC[C@]2(CC1)NC(=O)C(c1cc(-c3ccc(Cl)cc3)ccc1C)=C2O [Example 1-1]")
0.002
>>> meas_value("COC[C@]1(OC)CC[C@@]2(CC1)NC(=O)C(c1cc(-c3ccc(Cl)c(F)c3)ccc1C)=C2O [Example 1-4]")
0.0037
>>> meas_value("Cc1ccc(-c2ccc(Cl)c(F)c2)cc1C1=C(O)[C@]2(CC[C@H](C(F)(F)F)CC2)NC1=O [V.2-b]")
0.0005
>>> meas_value("CO[C@]1(C(F)(F)F)CC[C@]2(CC1)NC(=O)C(c1cc(-c3ccc(Cl)c(F)c3)ccc1C)=C2O [Example 1-2]")
0.0026

---

Assay: Pharmacokinetic parameters in the rat (i.v. and intragastric)
Format: in vivo
Details: male, plasma, iv, read-out: CLplasma (converted)
METRIC: clearance (mL/h/kg)

>>> meas_value("COC[C@]1(OC)CC[C@@]2(CC1)NC(=O)C(c1cc(-c3ccc(Cl)cc3)ccc1C)=C2O [Example 1-3]")
2

---

Listed here are molecules together with their documented CLblood.
Assay: Pharmacokinetic parameters in the rat (i.v. and intragastric)
Type: in vivo
METRIC: CLblood (mL/min/kg)

>>> meas_value("COC[C@]1(OC)CC[C@@]2(CC1)NC(=O)C(c1cc(-c3ccc(Cl)c(F)c3)ccc1C)=C2O [Example 1-4]")
0.183
>>> meas_value("CO[C@]1(C(F)(F)F)CC[C@]2(CC1)NC(=O)C(c1cc(-c3ccc(Cl)cc3)ccc1C)=C2O [Example 1-1]")
0.183
>>> meas_value("CO[C@]1(C(F)(F)F)CC[C@]2(CC1)NC(=O)C(c1cc(-c3ccc(Cl)c(F)c3)ccc1C)=C2O [Example 1-2]")
0.65
>>> meas_value("COC[C@]1(OC)CC[C@@]2(CC1)NC(=O)C(c1cc(-c3ccc(Cl)cc3)ccc1C)=C2O [Example 1-3]")
0.083

---

Target: human ACC2 (Homo sapiens (Human))
Sequence (O00763 27-2458 limits assumed): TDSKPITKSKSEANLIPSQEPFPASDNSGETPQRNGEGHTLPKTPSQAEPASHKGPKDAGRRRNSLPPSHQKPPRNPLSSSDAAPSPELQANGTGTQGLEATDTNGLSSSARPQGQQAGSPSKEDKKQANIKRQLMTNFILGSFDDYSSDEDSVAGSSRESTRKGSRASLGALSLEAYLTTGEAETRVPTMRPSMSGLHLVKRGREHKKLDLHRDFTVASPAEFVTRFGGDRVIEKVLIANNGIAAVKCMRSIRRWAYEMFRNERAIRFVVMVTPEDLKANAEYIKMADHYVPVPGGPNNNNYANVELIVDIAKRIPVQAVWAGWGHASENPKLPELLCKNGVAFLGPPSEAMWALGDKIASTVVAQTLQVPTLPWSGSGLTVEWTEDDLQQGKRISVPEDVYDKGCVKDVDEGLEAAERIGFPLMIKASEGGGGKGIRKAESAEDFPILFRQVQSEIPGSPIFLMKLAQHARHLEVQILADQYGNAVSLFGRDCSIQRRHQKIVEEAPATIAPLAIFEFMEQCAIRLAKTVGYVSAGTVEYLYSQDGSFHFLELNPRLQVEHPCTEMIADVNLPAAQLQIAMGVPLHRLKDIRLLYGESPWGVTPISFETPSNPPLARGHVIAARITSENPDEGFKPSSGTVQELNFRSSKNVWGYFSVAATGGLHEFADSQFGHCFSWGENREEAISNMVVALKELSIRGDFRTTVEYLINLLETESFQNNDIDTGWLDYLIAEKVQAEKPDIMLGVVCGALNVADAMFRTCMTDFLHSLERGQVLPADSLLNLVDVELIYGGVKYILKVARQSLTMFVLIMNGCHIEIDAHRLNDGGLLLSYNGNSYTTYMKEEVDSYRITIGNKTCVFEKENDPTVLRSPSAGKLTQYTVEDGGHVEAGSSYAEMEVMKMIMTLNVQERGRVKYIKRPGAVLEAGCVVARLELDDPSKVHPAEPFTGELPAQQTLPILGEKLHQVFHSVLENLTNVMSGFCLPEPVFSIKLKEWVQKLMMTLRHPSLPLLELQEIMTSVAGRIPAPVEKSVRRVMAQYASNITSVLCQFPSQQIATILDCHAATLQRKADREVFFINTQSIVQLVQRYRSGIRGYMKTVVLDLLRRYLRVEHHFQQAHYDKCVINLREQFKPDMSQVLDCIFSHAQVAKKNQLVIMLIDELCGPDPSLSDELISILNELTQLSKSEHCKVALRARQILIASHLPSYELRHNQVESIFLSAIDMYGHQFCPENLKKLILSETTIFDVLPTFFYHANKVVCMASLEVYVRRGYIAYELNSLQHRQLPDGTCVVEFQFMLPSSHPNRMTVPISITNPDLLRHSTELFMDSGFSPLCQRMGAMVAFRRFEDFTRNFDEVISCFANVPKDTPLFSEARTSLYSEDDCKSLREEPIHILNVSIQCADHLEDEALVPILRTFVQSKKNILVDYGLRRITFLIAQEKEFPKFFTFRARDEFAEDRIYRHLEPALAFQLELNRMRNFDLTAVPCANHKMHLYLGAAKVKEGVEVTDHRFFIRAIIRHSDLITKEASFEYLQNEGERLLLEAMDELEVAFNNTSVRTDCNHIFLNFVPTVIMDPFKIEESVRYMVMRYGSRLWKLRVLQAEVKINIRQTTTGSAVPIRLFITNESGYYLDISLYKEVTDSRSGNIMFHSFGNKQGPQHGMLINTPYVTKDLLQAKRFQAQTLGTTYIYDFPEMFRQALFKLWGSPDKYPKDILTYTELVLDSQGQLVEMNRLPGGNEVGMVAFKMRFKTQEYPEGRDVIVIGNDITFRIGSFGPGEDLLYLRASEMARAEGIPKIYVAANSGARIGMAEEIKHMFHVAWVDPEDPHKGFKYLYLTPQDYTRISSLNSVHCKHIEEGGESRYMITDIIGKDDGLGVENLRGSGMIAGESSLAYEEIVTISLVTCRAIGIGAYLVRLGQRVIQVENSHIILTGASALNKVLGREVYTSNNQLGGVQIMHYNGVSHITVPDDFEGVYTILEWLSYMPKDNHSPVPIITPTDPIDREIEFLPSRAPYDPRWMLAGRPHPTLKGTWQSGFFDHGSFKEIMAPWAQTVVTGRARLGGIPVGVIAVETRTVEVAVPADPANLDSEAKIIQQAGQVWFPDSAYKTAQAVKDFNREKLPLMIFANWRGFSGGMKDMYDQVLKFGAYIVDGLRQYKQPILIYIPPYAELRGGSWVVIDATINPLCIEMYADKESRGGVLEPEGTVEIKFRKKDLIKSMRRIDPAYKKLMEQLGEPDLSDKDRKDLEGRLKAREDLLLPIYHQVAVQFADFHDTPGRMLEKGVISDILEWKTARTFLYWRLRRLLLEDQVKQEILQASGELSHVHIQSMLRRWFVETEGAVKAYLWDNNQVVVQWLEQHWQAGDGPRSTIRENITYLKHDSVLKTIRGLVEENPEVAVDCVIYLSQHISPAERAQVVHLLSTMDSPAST
Experiment: Human ACC2 enzyme assay (ADP-Glo)
Settings: read-out: ACC 2 IC50; individual measurement (measurement no./preparation no. in table)
pIC50: −log10 of the molar value.
METRIC: pIC50

>>> meas_value("COC[C@H]1CC[C@]2(CC1)NC(=O)C(c1cc(-c3ccc(Cl)c(F)c3)ccc1C)=C2O")
5.95

---

Listed here are compounds together with their documented chromatographic logP.
Assay: Octanol/water distribution coefficient (logP/D), isocratic HPLC method
Assay type: physicochemical
Details: octanol/water, pH 7.4; pH7.4
METRIC: chromatographic logP

>>> meas_value("COC[C@]1(OC)CC[C@@]2(CC1)NC(=O)C(c1cc(-c3ccc(Cl)c(F)c3)ccc1C)=C2O")
2.38
>>> meas_value("Cc1ccc(-c2ccc(Cl)c(F)c2)cc1C1=C(O)[C@]2(CC[C@](O)(C(F)(F)F)CC2)NC1=O")
1.3
>>> meas_value("CO[C@]1(C(F)(F)F)CC[C@]2(CC1)NC(=O)C(c1cc(-c3ccc(Cl)c(F)c3)ccc1C)=C2O")
2.45

Cited source for all entries: patent US9278925B2
